System: MCF-7 cells
Assay name: Cell proliferation assay (Coulter Counter or CyQUANT fluorescent DNA-binding assay) in MCF-7 cells
Assay type: cell-based, human
Test context: Homo sapiens, MCF7, 168 h, 100 pM E2, day 7, doses of VPA ranging from 50 μM to 5 M; read-out: IC50 (cell proliferation), HDAC inhibitor alone
Assay readout: pIC50
Kindly note that pIC50 refers to -log10 of the concentration in mol/L and answer with the value alone.

Quickly give me recorded pIC50 for CCCC(CCC)C(=O)O [VPA]
3.10
